Serine/threonine-protein kinase mTOR (Homo sapiens) IC50, compiled from various sources.

INSERT INTO measurements (compound_structure, target_desc, readout_name, readout_value) VALUES
  ('CS(=O)(=O)Nc1cccc(-c2ccc3c(N4CCOCC4)nc(-c4cnc(N)nc4)nc3c2)c1', 'Serine/threonine-protein kinase mTOR (Homo sapiens)', 'IC50', '< 0.05 µM'),
  ('COc1ccccc1-n1c(=O)[nH]c2c(C(N)=O)nc(-c3cccc([N+](=O)[O-])c3)nc21', 'Serine/threonine-protein kinase mTOR (Homo sapiens)', 'IC50', '> 30 µM'),
  ('CN(C)C(=O)c1ccc(NC(=O)Nc2ccc(-c3nc(N4CCOCC4)c4ccc(-c5cnc(N)nc5)cc4n3)cc2)cc1', 'Serine/threonine-protein kinase mTOR (Homo sapiens)', 'IC50', '< 0.05 µM'),
  ('CN(C)C(=O)c1ccc(NC(=O)Nc2ccc(-c3nc(N4CCOCC4)c4ccc(-c5cccc(S(C)(=O)=O)c5)cc4n3)cc2)cn1', 'Serine/threonine-protein kinase mTOR (Homo sapiens)', 'IC50', '< 0.05 µM'),
  ('Cc1n[nH]c2c1c(C1CCS(=O)(=O)CC1)nc1c(-c3cnc4ccccc4c3)cnn12', 'Serine/threonine-protein kinase mTOR (Homo sapiens)', 'IC50', '0.01 to 0.1 µM');

## Input Quick check: IC50 of CCCS(=O)(=O)Nc1cccc(-c2cc(OC)c3nc(-c4ccc(N)nc4F)nc(N4CCOCC4)c3c2)c1F ?
## Output 0.1 to 1 µM

## Input Quick check: IC50 of Cc1ccc(S(=O)(=O)NCCC(C)(C)O)cc1-c1cncc(-c2cn(CCN3CCOCC3)nc2C)n1 ?
## Output 9.8 µM

---

pIC50: −log10 of the molar value.
Serine/threonine-protein kinase mTOR (Homo sapiens, UniProt P42345) pIC50, compiled from various sources.

Below, 5 molecules whose answers are already recorded.
INSERT INTO results (molecule, readout_value) VALUES
  ('Cn1cc(-n2c(=O)n(C)c3cnc4ccc(-c5cncc(C(C)(C)O)c5)cc4c32)c(Cl)n1', 8.15),
  ('CCOc1ncc(-c2ccc3ncc4c(c3c2)n(-c2cn(C)nc2C)c(=O)n4C)cc1NC(C)=O', 7.24),
  ('CN(C)C(=O)c1ccc(NC(=O)Nc2ccc(-c3nc(N4CCOCC4)c4ncc(-c5cnn(C)c5)cc4n3)cc2)cc1', '> 7.30'),
  ('CNc1cc(-c2ccc3ncc4c(c3c2)n(-c2cn(C)nc2C)c(=O)n4C)cnc1C', '> 8.52'),
  ('CC(c1ccccc1)n1c(=O)[nH]c2ccc(-c3cccc4ncccc34)nc21 (stereo not shown)', '< 4.52');

## Input Could you share what pIC50 was measured for CCOc1cncc(-c2ccc3ncc4c(c3c2)n(-c2cn(C)nc2C)c(=O)n4C)c1 , tested on Serine/threonine-protein kinase mTOR (Homo sapiens, UniProt P42345)?
## Output 7.82

## Input Could you share what pIC50 was measured for O=C(Nc1ccc(-c2nc3c(c(N4CCOCC4)n2)CS(=O)(=O)C3)cc1)NC1CC1 , tested on Serine/threonine-protein kinase mTOR (Homo sapiens, UniProt P42345)?
## Output > 7.00

---

Serine/threonine-protein kinase mTOR (Homo sapiens, UniProt P42345) IC50, compiled from various sources.

Below, 5 compounds whose answers are already recorded.
INSERT INTO measurements (compound_structure, readout_value) VALUES
  ('CN(C)C(=O)c1ccc(NC(=O)Nc2ccc(-c3nc(N4CCOCC4)c4ncc(-c5cncnc5)cc4n3)cc2)c(F)c1', '< 50 nM'),
  ('Cc1nn(C)cc1-n1c(=O)n(C)c2cnc3ccc(-c4cnc5c(c4)nnn5C)cc3c21', '179 nM'),
  ('CNc1ncc(-c2nc(N3CCOCC3)c3nc(N4CCN(C(C)=O)[C@@H](C)C4)n(CC(F)(F)F)c3n2)cn1', '< 10 nM'),
  ('CCCS(=O)(=O)Nc1ccc(Cl)c(-c2cc(OC)c3nc(-c4ccc(N)nc4)nc(N4CCOCC4)c3c2)c1F', '100 to 1000 nM'),
  ('CC(=O)N1CCC(c2ccccc2CC(C)(C)Nc2nc(N3CCOCC3)nc(-n3c(C(F)F)nc4ccccc43)n2)CC1', '> 500 nM');

## Input Quick check: IC50 of O=c1[nH]c2ncc(-c3cnc4c(c3)CCN4)cc2n1C[C@H]1COCCO1 ?
## Output < 50 nM

## Input Quick check: IC50 of Oc1cc(F)cc(-c2nc(N3CCOCC3)nc3c2ncn3Cc2ccccc2)c1 ?
## Output < 1000 nM

## Input Quick check: IC50 of CCn1cc(-n2c(=O)n(C)c3cnc4ccc(-c5ccc(OC)nc5)cc4c32)c(C)n1 ?
## Output 13 nM

## Input Quick check: IC50 of C[C@@H]1COCCN1c1nc(-c2cnc(N)nc2)nc2ccc(-c3cccc(NS(=O)(=O)CCCF)c3F)nc12 ?
## Output 100 to 1000 nM

---

Serine/threonine-protein kinase mTOR (Homo sapiens, UniProt P42345) IC50, compiled from various sources.

Below, 5 compounds whose answers are already recorded.
INSERT INTO assay_data (compound, readout_name, readout_value) VALUES
  ('CN(C)C(=O)c1ccc(NC(=O)Nc2ccc(-c3nc(N4CCOCC4)c4ncc(-c5cccnc5F)cc4n3)cc2F)cc1', 'IC50', '< 50 nM'),
  ('CNc1ncc(-c2nc(N3CCOCC3)c3nc(N4CCN(S(C)(=O)=O)[C@@H](C)C4)n(CC(F)(F)F)c3n2)cn1', 'IC50', '< 10 nM'),
  ('COc1ncc(-c2ccc3ncc(C#CC(C)O)n3n2)cc1NS(=O)(=O)c1ccc(F)cc1 (stereo not drawn)', 'IC50', '16 nM'),
  ('OCCn1cnc2c(-n3c(C(F)F)nc4ccccc43)nc(N3CCOCC3)nc21', 'IC50', '> 100 nM'),
  ('CS(=O)(=O)N1CCC(n2cnc3cnc4ccc(-c5cnc(N)c(C(F)(F)F)c5)nc4c32)CC1', 'IC50', '< 100 nM');

## Input Could you share what IC50 was measured for C[C@@H]1CN(c2nc3c(N4CCOCC4)nc(-c4cnc(N)nc4)nc3n2CC(F)(F)F)CCN1S(C)(=O)=O , tested on Serine/threonine-protein kinase mTOR (Homo sapiens, UniProt P42345)?
## Output 10 to 30 nM

## Input Could you share what IC50 was measured for O=c1[nH]c2ncc(-c3cccc4ncccc34)nc2n1C1CCOCC1 , tested on Serine/threonine-protein kinase mTOR (Homo sapiens, UniProt P42345)?
## Output > 30000 nM

## Input Could you share what IC50 was measured for CNc1ncc(-c2ccc3ncc4c(c3c2)n(-c2c(C)noc2C)c(=O)n4C)cc1Cl , tested on Serine/threonine-protein kinase mTOR (Homo sapiens, UniProt P42345)?
## Output 479 nM

## Input Could you share what IC50 was measured for COc1ncc(-c2ccc3c(N4CCOCC4)nc(-c4ccc(NC(=O)Nc5ccc(C(=O)N(C)C)cc5)cc4F)nc3c2)cn1 , tested on Serine/threonine-protein kinase mTOR (Homo sapiens, UniProt P42345)?
## Output < 50 nM

## Input Could you share what IC50 was measured for N[C@@H]1CCN(C(=O)c2ccc(NC(=O)Nc3ccc(-c4nc(N5CCOCC5)c5ccc(-c6cncnc6)cc5n4)cc3F)cc2)C1 , tested on Serine/threonine-protein kinase mTOR (Homo sapiens, UniProt P42345)?
## Output < 50 nM

## Input Could you share what IC50 was measured for CC[C@H]1CN(c2nc3c(N4CCOCC4)nc(-c4cnc(N)nc4)nc3n2CC(F)(F)F)CCN1S(C)(=O)=O , tested on Serine/threonine-protein kinase mTOR (Homo sapiens, UniProt P42345)?
## Output < 10 nM

## Input Could you share what IC50 was measured for CN(C)C(=O)c1ccc(NC(=O)Nc2ccc(-c3nc(N4CCOCC4)c4ncc(-c5cnc(N(C)C)nc5)cc4n3)cc2)cc1 , tested on Serine/threonine-protein kinase mTOR (Homo sapiens, UniProt P42345)?
## Output < 50 nM

## Input Could you share what IC50 was measured for COc1ncc(-c2ccc3ncc4c(c3c2)n(-c2cn(C)nc2Cl)c(=O)n4C)cn1 , tested on Serine/threonine-protein kinase mTOR (Homo sapiens, UniProt P42345)?
## Output 12 nM

## Input Could you share what IC50 was measured for C=CC(=O)N1CCc2ccc(-n3c(=O)ccc4cnc5ccc(-c6ccc(N7CCN(C)CC7)cc6)cc5c43)cc21 , tested on Serine/threonine-protein kinase mTOR (Homo sapiens, UniProt P42345)?
## Output 516 nM

## Input Could you share what IC50 was measured for CC(C)(Cc1ccccc1-c1cccc(CN2CCOCC2)c1)Nc1nc(N2CCOCC2)nc(-n2c(C(F)F)nc3ccccc32)n1 , tested on Serine/threonine-protein kinase mTOR (Homo sapiens, UniProt P42345)?
## Output > 500 nM
